Origin of the recorded values: the Immune Epitope Database (IEDB)

# system.tested: HLA-B*27:05
# experimental.details: IEDB peptide-MHC binding, purified MHC/direct/fluorescence; filed as Kd, often an IC50 or EC50 that approximates it; bounds were set here for any values at or beyond the usual limits of such assays
# stated.conditions: source organism: Yersinia pestis Nepal516
assay.metric: Kd

Ask: GET /values?readout=Kd&system=HLA-B*27:05&item= "ETIFTVLAL"
Reply: ≥ 20 µM

---

# system.tested: HLA-B*45:01
# experimental.details: IEDB peptide-MHC binding, purified MHC/competitive/radioactivity; filed as Kd, often an IC50 or EC50 that approximates it; bounds were set here for any values at or beyond the usual limits of such assays
# stated.conditions: source organism: Lymphocytic choriomeningitis virus (strain Armstrong)
assay.metric: pKd
Note on units: pKd is unitless, being -log10 of a concentration expressed in mol/L.

Ask: # get_value(readout='pKd', item= "SENDWFSCM" )
Reply: 6.93

---

# system.tested: HLA-A*02:06
# experimental.details: IEDB peptide-MHC binding, purified MHC/direct/fluorescence; filed as Kd, often an IC50 or EC50 that approximates it; bounds were set here for any values at or beyond the usual limits of such assays
# stated.conditions: source organism: Giardia lamblia ATCC 50803
assay.metric: Kd

Ask: # get_value(readout='Kd', item= "YLDMVLAFL" )
Reply: ≤ 1 nM

---

# system.tested: HLA-B*15:03
# experimental.details: IEDB peptide-MHC binding, purified MHC/competitive/radioactivity; filed as Kd, often an IC50 or EC50 that approximates it; bounds were set here for any values at or beyond the usual limits of such assays
# stated.conditions: source organism: Vaccinia virus WR
assay.metric: pKd
Note on units: pKd is unitless, being -log10 of a concentration expressed in mol/L.

- ELRDYFEQI: 7.10
- RQFEKDRSF: 9.84
- ILFYFANGI: 6.86
- VQSFKINIF: 7.29
- YQHFVARVF: 9.40

Ask: # get_value(readout='pKd', item= "AMKVDANYF" )
Reply: 9.83

Ask: # get_value(readout='pKd', item= "SQRFIFNII" )
Reply: 6.52

---

# system.tested: HLA-B*45:06
# experimental.details: IEDB peptide-MHC binding, purified MHC/competitive/fluorescence; filed as Kd, often an IC50 or EC50 that approximates it; bounds were set here for any values at or beyond the usual limits of such assays
# stated.conditions: source organism: Yersinia pseudotuberculosis IP 31758
assay.metric: Kd

Ask: GET /values?readout=Kd&system=HLA-B*45:06&item= "FQWWRSHPL"
Reply: ≥ 5 µM

---

# system.tested: HLA-B*18:01
# experimental.details: IEDB peptide-MHC binding, purified MHC/direct/fluorescence; filed as Kd, often an IC50 or EC50 that approximates it; bounds were set here for any values at or beyond the usual limits of such assays
# stated.conditions: source organism: Salmonella enterica
pKd: −log10 of the molar value.
assay.metric: pKd

Ask: # get_value(readout='pKd', item= "MGKTITDVK" )
Reply: ≤ 4.70

---

# system.tested: HLA-A*02:12
# experimental.details: IEDB peptide-MHC binding, purified MHC/direct/fluorescence; filed as Kd, often an IC50 or EC50 that approximates it; bounds were set here for any values at or beyond the usual limits of such assays
# stated.conditions: source organism: Araucaria virus
assay.metric: Kd

Ask: # get_value(readout='Kd', item= "AQKLATKPV" )
Reply: ≥ 20 µM

---

# system.tested: HLA-B*18:01
# experimental.details: IEDB peptide-MHC binding, purified MHC/competitive/fluorescence; filed as Kd, often an IC50 or EC50 that approximates it; bounds were set here for any values at or beyond the usual limits of such assays
# stated.conditions: source organism: Bacillus anthracis str. Ames
pKd: −log10 of the molar value.
assay.metric: pKd

Ask: # get_value(readout='pKd', item= "VILYFMYRK" )
Reply: ≤ 4.70

---

Each record here notes measured pKd.
# system.tested: HLA-A*02:17
# experimental.details: IEDB peptide-MHC binding, purified MHC/competitive/radioactivity; filed as Kd, often an IC50 or EC50 that approximates it; bounds were set here for any values at or beyond the usual limits of such assays
# stated.conditions: source organism: Dengue virus 4 Philippines/H241/1956
Note on units: pKd is unitless, being -log10 of a concentration expressed in mol/L.

Below are worked cases with known answers.
- GVFHTMWHV: 6.96
- LLAGFMAYM: 8.71
- VTYECPLLV: 6.25
- LLVKLALITV: 5.17
- GLFGKTQVGV: 5.56

Please find the next sequence below.
Ask: # get_value(readout='pKd', item= "FMKDGRSLV" )
Reply: 5.78

---

# system.tested: HLA-A*26:01
# experimental.details: IEDB peptide-MHC binding, purified MHC/direct/fluorescence; filed as Kd, often an IC50 or EC50 that approximates it; bounds were set here for any values at or beyond the usual limits of such assays
# stated.conditions: source organism: Salmonella enterica subsp. enterica serovar Typhimurium
assay.metric: Kd (nM)
Numbers only here, please. The scale is nM.

Ask: GET /values?readout=Kd&system=HLA-A*26:01&item= "ATISYRIKL"
Reply: 2640

---

# system.tested: HLA-A*01:01
# experimental.details: IEDB peptide-MHC binding, purified MHC/competitive/radioactivity; filed as Kd, often an IC50 or EC50 that approximates it; bounds were set here for any values at or beyond the usual limits of such assays
# stated.conditions: source organism: Mammarenavirus tacaribeense
assay.metric: Kd

Ask: GET /values?readout=Kd&system=HLA-A*01:01&item= "YCDPKRFFL"
Reply: ≥ 29.1 µM

---

# system.tested: HLA-B*40:01
# experimental.details: IEDB peptide-MHC binding, purified MHC/direct/fluorescence; filed as Kd, often an IC50 or EC50 that approximates it; bounds were set here for any values at or beyond the usual limits of such assays
# stated.conditions: source organism: Salmonella enterica subsp. enterica serovar Typhimurium
assay.metric: pKd
Note on units: pKd is unitless, being -log10 of a concentration expressed in mol/L.

Ask: # get_value(readout='pKd', item= "YSDIFNNVL" )
Reply: 6.40

---

# system.tested: HLA-A*30:01
# experimental.details: IEDB peptide-MHC binding, purified MHC/direct/fluorescence; filed as Kd, often an IC50 or EC50 that approximates it; bounds were set here for any values at or beyond the usual limits of such assays
# stated.conditions: source organism: Salmonella enterica subsp. enterica serovar Typhimurium
assay.metric: pKd
Note on units: pKd is unitless, being -log10 of a concentration expressed in mol/L.

Ask: # get_value(readout='pKd', item= "RKAGVNQAK" )
Reply: 4.89

---

# system.tested: HLA-A*24:03
# experimental.details: IEDB peptide-MHC binding, purified MHC/direct/fluorescence; filed as Kd, often an IC50 or EC50 that approximates it; bounds were set here for any values at or beyond the usual limits of such assays
# stated.conditions: source organism: Campylobacter jejuni
assay.metric: Kd (nM)
Numbers only here, please. The scale is nM.

Ask: # get_value(readout='Kd', item= "WFGHLASDW" )
Reply: 21.5

---

# system.tested: HLA-B*40:01
# experimental.details: IEDB peptide-MHC binding, purified MHC/competitive/fluorescence; filed as Kd, often an IC50 or EC50 that approximates it; bounds were set here for any values at or beyond the usual limits of such assays
# stated.conditions: source organism: Burkholderia mallei SAVP1
assay.metric: Kd

Ask: # get_value(readout='Kd', item= "NVMDPMHGA" )
Reply: ≥ 5 µM

---

# system.tested: HLA-A*02:01
# experimental.details: IEDB peptide-MHC binding, purified MHC/competitive/fluorescence; filed as Kd, often an IC50 or EC50 that approximates it; bounds were set here for any values at or beyond the usual limits of such assays
# stated.conditions: source organism: Corynebacterium glutamicum ATCC 13032
pKd: −log10 of the molar value.
assay.metric: pKd

Ask: # get_value(readout='pKd', item= "MSSAAHLLY" )
Reply: ≤ 4.70

---

# system.tested: HLA-B*46:01
# experimental.details: IEDB peptide-MHC binding, purified MHC/competitive/fluorescence; filed as Kd, often an IC50 or EC50 that approximates it; bounds were set here for any values at or beyond the usual limits of such assays
# stated.conditions: source organism: SARS-CoV1
assay.metric: pKd
Note on units: pKd is unitless, being -log10 of a concentration expressed in mol/L.

Ask: # get_value(readout='pKd', item= "KQYNVTQAF" )
Reply: 7.19

---

# system.tested: HLA-A*03:01
# experimental.details: IEDB peptide-MHC binding, purified MHC/direct/fluorescence; filed as Kd, often an IC50 or EC50 that approximates it; bounds were set here for any values at or beyond the usual limits of such assays
# stated.conditions: source organism: Salmonella enterica
pKd: −log10 of the molar value.
assay.metric: pKd

Ask: # get_value(readout='pKd', item= "MGKTITDVK" )
Reply: ≤ 4.70
